- target.desc: NO synthase (Rattus norvegicus, UniProt P0DP29+P29476)
- Sequence (P29476 whole entry, one chain of several): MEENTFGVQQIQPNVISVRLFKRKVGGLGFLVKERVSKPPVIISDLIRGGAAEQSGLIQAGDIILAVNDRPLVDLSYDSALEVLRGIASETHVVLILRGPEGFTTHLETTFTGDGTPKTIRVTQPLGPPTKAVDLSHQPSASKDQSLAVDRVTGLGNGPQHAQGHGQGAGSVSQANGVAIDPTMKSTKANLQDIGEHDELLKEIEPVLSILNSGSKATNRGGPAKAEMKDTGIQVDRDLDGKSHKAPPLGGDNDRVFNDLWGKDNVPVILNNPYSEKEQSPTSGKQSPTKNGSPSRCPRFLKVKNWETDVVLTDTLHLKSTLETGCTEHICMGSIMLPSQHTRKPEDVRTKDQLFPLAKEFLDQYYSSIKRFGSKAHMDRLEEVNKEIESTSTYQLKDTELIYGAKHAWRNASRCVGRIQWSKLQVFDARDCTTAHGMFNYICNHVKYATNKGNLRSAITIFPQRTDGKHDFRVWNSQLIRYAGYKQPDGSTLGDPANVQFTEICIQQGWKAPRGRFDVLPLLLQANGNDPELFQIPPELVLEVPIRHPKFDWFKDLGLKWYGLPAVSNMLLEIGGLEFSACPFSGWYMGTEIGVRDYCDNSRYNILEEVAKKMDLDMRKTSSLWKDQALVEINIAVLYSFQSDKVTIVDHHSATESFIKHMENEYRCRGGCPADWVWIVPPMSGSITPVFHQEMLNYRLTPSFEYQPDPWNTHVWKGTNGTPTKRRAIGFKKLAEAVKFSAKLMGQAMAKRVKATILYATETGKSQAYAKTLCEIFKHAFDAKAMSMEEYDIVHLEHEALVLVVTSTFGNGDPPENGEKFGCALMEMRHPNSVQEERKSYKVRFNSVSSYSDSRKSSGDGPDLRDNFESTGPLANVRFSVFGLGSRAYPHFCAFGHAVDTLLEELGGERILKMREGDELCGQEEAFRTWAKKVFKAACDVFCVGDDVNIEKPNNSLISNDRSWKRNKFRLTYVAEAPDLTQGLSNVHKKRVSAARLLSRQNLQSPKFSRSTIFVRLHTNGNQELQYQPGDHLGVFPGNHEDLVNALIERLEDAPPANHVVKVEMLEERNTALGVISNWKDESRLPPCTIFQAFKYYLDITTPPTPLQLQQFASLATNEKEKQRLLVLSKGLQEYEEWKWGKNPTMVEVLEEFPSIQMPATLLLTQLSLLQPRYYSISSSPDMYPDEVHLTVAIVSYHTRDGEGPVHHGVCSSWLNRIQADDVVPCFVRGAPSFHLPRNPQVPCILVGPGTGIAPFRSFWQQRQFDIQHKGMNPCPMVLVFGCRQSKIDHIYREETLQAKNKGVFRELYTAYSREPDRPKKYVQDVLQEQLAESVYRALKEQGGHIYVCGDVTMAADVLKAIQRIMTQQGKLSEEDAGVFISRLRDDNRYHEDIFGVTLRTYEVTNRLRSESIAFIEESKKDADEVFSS
- method: NO synthase activity, conversion of [3H]arginine to [3H]citrulline, purified enzyme
- stated.conditions: read-out: EC50 for enhancement/stimulation of enzyme activity
experimental.endpoint: EC50 (nM)
One number for each entry, in nM.

Name the recorded EC50 for [Ca+2] [Ca^2+, calcium] .
200

* * *

- target.desc: NO synthase (Rattus norvegicus, UniProt P0DP29+P29476)
- method: NO synthase activity, conversion of [3H]arginine to [3H]citrulline, purified enzyme
- stated.conditions: read-out: Calmodulin antagonists, IC50
experimental.endpoint: pIC50
Numbers only, as −log10 of the molar value.

chemical.smiles | target.desc | pIC50
NCCCCNS(=O)(=O)c1ccc2c(Cl)cccc2c1 | NO synthase (Rattus norvegicus, UniProt P0DP29+P29476) | 4.15

Okay, now this compound:
Name the recorded pIC50 for `NCCCCCCNS(=O)(=O)c1cccc2ccccc12` .
4.60
